B1: OR4K15 (parent)
chain: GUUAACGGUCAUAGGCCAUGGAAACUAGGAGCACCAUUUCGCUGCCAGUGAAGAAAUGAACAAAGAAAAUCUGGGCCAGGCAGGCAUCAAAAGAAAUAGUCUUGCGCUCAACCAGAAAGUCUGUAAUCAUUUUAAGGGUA

Variants of: B1
protocol.description: self-cleavage, relative activity (ratio to wild type); higher = more cleavage; in vitro, sequencing; the parent is a self-cleaving ribozyme
value.type: self-cleavage
Numbers only.

Below, each entry is followed by its recorded self-cleavage result.
INSERT INTO assay_data (mutation, value_reported) VALUES
  ('U38C G93U', 2.26),
  ('U102C A135U', 2.46),
  ('A33C A47G', 1.05),
  ('A11G A140U', 1.31),
  ('U49C A114C', 0.03);

Count: 2. Required value per item: self-cleavage.
1. U9C C45U
2. A30U

1.07
1.24

Each of the following entries comes with a recorded value; kindly state self-cleavage for each.
1. C6U
2. A111G U127C
3. A11G A126U
4. A63G U139C
5. U39A A67G
6. U49C C105A

1: 0.75; 2: 0.01; 3: 1.17; 4: 1.1; 5: 1.5; 6: 0.03

Look at each variant and report its self-cleavage.
1. U37G A60G
2. A63G U100C

1: 1.48; 2: 2.31

# batch: return self-cleavage for each of the 6 variants below
1. A62U A110G
2. A11G C107G
3. U2C G73A
4. A47C U87C
5. U49C A86U
6. A60G A67G

[0.14, 0.05, 0.22, 1.76, 1.68, 0.84]
